Tested on: U-2932
Test: growth inhibition by drug alone (1 - RLU/untreated control) (fraction); higher = stronger inhibition
Conditions: 10 nM; time (day): 3; 177Lu-lilotomab satetraxetan 0 ug/ml
recorded endpoint: growth inhibition by drug alone
// print number alone

// below: answered compounds
- compound: "O=C1[C@H](CC[C@H](O)c2ccc(F)cc2)[C@@H](c2ccc(O)cc2)N1c1ccc(F)cc1 [Ezetimibe (Zetia)]"
  growth inhibition by drug alone: 0.207
- compound: "CCN(CC)CCCC(C)Nc1nc(C)cc(Nc2ccc3nc(C)cc(N)c3c2)n1 (stereo unspecified)"
  growth inhibition by drug alone: 0.0927
- compound: "Cn1cc(-c2ccc3nnc(C(F)(F)c4ccc5ncccc5c4)n3n2)cn1"
  growth inhibition by drug alone: -0.0908

[ask] Return reported growth inhibition by drug alone; argument: CCCC(=O)[O-].[Na+] [Sodium butyrate]
[reply] -0.0432

[ask] What do you have for CN(C)C[C@@H]1CCn2cc(c3ccccc32)C2=C(C(=O)NC2=O)c2cn(c3ccccc23)CCO1 ?
[reply] 0.148

[ask] Item: Oc1nc(-c2ccc(C(F)(F)F)cc2)nc2c1CSCC2
[reply] 0.0264

====

System: U-2932
Assay: growth inhibition by drug plus 177Lu-lilotomab satetraxetan (1 - RLU/untreated control) (fraction); higher = stronger inhibition
Settings: 1000 nM; time (day): 5; 177Lu-lilotomab satetraxetan 1 ug/ml
recorded endpoint: growth inhibition by drug plus 177Lu-lilotomab satetraxetan
Enter the number alone.

Field: example entries. Status: answers known.
- compound: "C[C@]12CCC(=O)C=C1CC[C@@H]1[C@@H]2[C@@H](O)C[C@@]2(C)[C@H]1CC[C@]2(O)C(=O)CO [Hydrocortisone (Cortisol)]"
  meas value: 0.293
- compound: "C[C@]12CC[C@@H]3c4ccc(O)cc4CC[C@H]3[C@@H]1CCC2=O"
  meas value: 0.0954
- compound: "O=C(O)c1ccc2c(c1)nc(Nc1cccc(Cl)c1)c1ccncc12 [cx-4945 (Silmitasertib)]"
  meas value: 0.0545
- compound: "Cc1cn(-c2cc(NC(=O)c3ccc(C)c(Nc4nccc(-c5cccnc5)n4)c3)cc(C(F)(F)F)c2)cn1"
  meas value: -0.0875

// next entry
[ask] // map CC(C)CC(=O)Nc1n[nH]c2c1CN(C(=O)C1CCN(C)CC1)C2(C)C to recorded growth inhibition by drug plus 177Lu-lilotomab satetraxetan (system: U-2932)
[reply] 0.93

====

Test system: U-2932
Experiment: growth inhibition by drug alone (1 - RLU/untreated control) (fraction); higher = stronger inhibition
Settings: 10 nM; time (day): 3; 177Lu-lilotomab satetraxetan 0 ug/ml
Each record here notes measured growth inhibition by drug alone.
Please give only the number in your answer, with no unit.

Would you please look over these solved cases?
- molecule: "COc1nc(-c2ccc3c(c2)OCO3)n(-c2ccc(NC(=O)CSc3ccccc3)cc2)n1"
  tested target: "U-2932"
  meas value: -0.0611
- molecule: "CC(C)C(=O)Nc1ccc([N+](=O)[O-])c(C(F)(F)F)c1 [Flutamide (Eulexin)]"
  tested target: "U-2932"
  meas value: 0.147
- molecule: "N#Cc1ccc(COC[C@H]2O[C@@H](n3c(NCc4ccc(Cl)c(Cl)c4)nc4c(N)ncnc43)[C@H](O)[C@@H]2O)cc1"
  tested target: "U-2932"
  meas value: 0.115
- molecule: "Cc1ccc(NC(=O)c2ccc(CN3CC[C@H](N(C)C)C3)c(C(F)(F)F)c2)cc1Nc1nccc(-c2cncnc2)n1"
  tested target: "U-2932"
  meas value: 0.0934

[ask] Look at this molecule and give its reported growth inhibition by drug alone. Cc1c(CCOc2ccc(C(=O)O)cc2)c2cc(Cl)ccc2n1C(c1ccccc1)c1ccccc1
[reply] 0.00805

[ask] Another: Nc1nc(OCc2cc(Br)cs2)c2[nH]cnc2n1
[reply] -0.115

====

Test system: U-2932
Assay: growth inhibition by drug alone (1 - RLU/untreated control) (fraction); higher = stronger inhibition
Details: 10 nM; time (day): 5; 177Lu-lilotomab satetraxetan 0 ug/ml
Structures can show the parent of a compound that is named as a salt.
recorded endpoint: growth inhibition by drug alone
The response must contain the number and no unit.

- compound: "Cn1cncc1[C@@](N)(c1ccc(Cl)cc1)c1ccc2c(c1)c(-c1cccc(Cl)c1)cc(=O)n2C [Tipifarnib (Zarnestra)]"
  growth inhibition by drug alone: 0.00741
- compound: "C[C@@H](Oc1cc(-n2cnc3ccc(CN4CCN(C)CC4)cc32)sc1C(N)=O)c1ccccc1C(F)(F)F"
  growth inhibition by drug alone: 0.438
- compound: "CNC(=O)c1cc(Oc2ccc(NC(=O)Nc3ccc(Cl)c(C(F)(F)F)c3)c(F)c2)ccn1"
  growth inhibition by drug alone: 0.0627
- compound: "CC(C)[C@H](C(=O)Nc1ccc(C(=O)NO)cc1)c1ccccc1"
  growth inhibition by drug alone: -0.0183
- compound: "CCCC(CCC)C(=O)O [Valproic acid sodium salt (Sodium valproate)]"
  growth inhibition by drug alone: -0.0268
- compound: "CN1CCN(c2cccc(Nc3nc4c(-c5ccc(S(C)(=O)=O)cc5)cccn4n3)c2)CC1"
  growth inhibition by drug alone: 0.0368

[ask] Requested field: growth inhibition by drug alone. Item: COc1ccc(/C=C\c2cc(OC)c(OC)c(OC)c2)cc1O
[reply] 0.979

====

Test system: U-2932
Test: growth inhibition by drug plus 177Lu-lilotomab satetraxetan (1 - RLU/untreated control) (fraction); higher = stronger inhibition
Settings: 10 nM; time (day): 4; 177Lu-lilotomab satetraxetan 1 ug/ml
Where a name gives a salt, the structure may show the parent alone.
recorded endpoint: growth inhibition by drug plus 177Lu-lilotomab satetraxetan
Please reply with the value in numeric form only.

- molecule: "CN(C)Cc1ccc(-c2nc3cccc4c3n2CCNC4=O)cc1"
  meas value: 0.0491
- molecule: "COc1cc2nc(N3CCCN(C)CC3)nc(NC3CCN(Cc4ccccc4)CC3)c2cc1OC"
  meas value: 0.135

[ask] Quick one: growth inhibition by drug plus 177Lu-lilotomab satetraxetan for O=C(O)C(Cc1c[nH]c2ccccc12)N1C(=O)c2ccccc2C1=O (stereo unspecified) ?
[reply] -0.0477

[ask] Record: CC[C@H](Nc1ncnc2[nH]cnc12)c1nc2cccc(F)c2c(=O)n1-c1ccccc1
[reply] -0.0707

[ask] Okay, and O=C(Nc1cccnc1)N1CCC(Cc2cccc(Oc3ccc(C(F)(F)F)cn3)c2)CC1 ?
[reply] 0.18

[ask] Query O=C1NC(=O)/C(=C\c2cccc(C(F)(F)F)c2)S1 next
[reply] -0.0351

[ask] Likewise for CC(C)C(=O)Nc1ccc([N+](=O)[O-])c(C(F)(F)F)c1 [Flutamide (Eulexin)] ?
[reply] 0.202

[ask] Moving on to the next molecule: O=C(O)Cc1cccc(OCCCN(Cc2cccc(C(F)(F)F)c2Cl)CC(c2ccccc2)c2ccccc2)c1
[reply] 0.0894

[ask] Same question for CC(C)(C)c1[nH]cnc1/C=c1\[nH]c(=O)/c(=C/c2ccccc2)[nH]c1=O [NPI-2358 (Plinabulin)] please.
[reply] 0.123

[ask] Can you check CC(C=CC(=O)NO)=CC(C)C(=O)c1ccc(N(C)C)cc1 (stereo unspecified) [Trichostatin A (TSA)] next?
[reply] 0.0461

[ask] Next entry: Clc1ccc(Nc2nnc(Cc3ccncc3)c3ccccc23)cc1 [Vatalanib dihydrochloride (PTK787)]
[reply] 0.0115

[ask] // repeat for NC(=O)Nc1cc(-c2cccc(F)c2)sc1C(=O)N[C@H]1CCCNC1 and report
[reply] 0.0423

[ask] // query: O=C(Nc1ccccc1-c1cn2c(CN3CCNCC3)csc2n1)c1cnc2ccccc2n1
[reply] 0.0594

[ask] And the next one, COc1cc(Nc2c(C#N)cnc3cc(OCCCN4CCN(C)CC4)c(OC)cc23)c(Cl)cc1Cl [Bosutinib (SKI-606)] ?
[reply] 0.085

[ask] What about this molecule? CC(=O)O[C@]1(C(C)=O)CC[C@H]2[C@@H]3C[C@H](C)C4=CC(=O)CC[C@]4(C)[C@H]3CC[C@@]21C [Medroxyprogesterone acetate]
[reply] 0.0764

[ask] Then what about the molecule C[C@]12CC[C@H](O)CC1=CC[C@@H]1[C@@H]2CC[C@]2(C)C(c3cccnc3)=CC[C@@H]12 [Abiraterone (CB-7598)] ?
[reply] 0.0754

[ask] Quick one: Cc1ccc(C(=O)N(CCCN)[C@@H](c2nc3cc(Cl)ccc3c(=O)n2Cc2ccccc2)C(C)C)cc1
[reply] 0.409

[ask] Lookup Cn1cc(-c2ccc3nnc(C(F)(F)c4ccc5ncccc5c4)n3n2)cn1
[reply] -0.0323

[ask] Can you check C[C@@H](Oc1cc(-n2cnc3ccc(CN4CCN(C)CC4)cc32)sc1C(N)=O)c1ccccc1C(F)(F)F next?
[reply] 0.489

[ask] # repeat for Nc1ccc(C(=O)Nc2cccc(-c3nc(N4CCOCC4)c4oc5ncccc5c4n3)c2)cn1
[reply] 0.0368

[ask] Can you check FC(F)c1nc2ccccc2n1-c1nc(N2CCOCC2)nc(N2CCOCC2)n1 next?
[reply] 0.119

[ask] Quick one: CC(C)C[C@H](NC(=O)[C@@H](O)[C@H](N)Cc1ccccc1)C(=O)O [Ubenimex (Bestatin)]
[reply] 0.0451

[ask] // query: CC(C)CC(=O)Nc1n[nH]c2c1CN(C(=O)C1CCN(C)CC1)C2(C)C
[reply] 0.101

[ask] Now the molecule Cc1cc(Nc2cc(N3CCN(C)CC3)nc(Sc3ccc(NC(=O)C4CC4)cc3)n2)n[nH]1 [VX-680 (MK-0457, Tozasertib)]
[reply] 0.0675

[ask] Further, for COc1ccc(-c2ccc3c(N4CCOC[C@@H]4C)nc(N4CCOC[C@@H]4C)nc3n2)cc1CO ?
[reply] 0.14

[ask] What about O=C(CCc1ccc(O)cc1)c1c(O)cc(O)cc1O [Phloretin (Dihydronaringenin)] ?
[reply] 0.0299

The measurements presented in this section are drawn from the supplement of paper PMC6897291.
